System: Galleria mellonella larvae
Method Description: In vivo acute toxicity, single treatment
Conditions Used: assumed, single inoculation; read-out: CC50 (G. mellonella larvae)

{"columns": ["Compound", "CC50"],
 "data": [
  ["O.O.O.O.O=C1C(=O)c2cccnc2-c2ncccc21.O=C1C(=O)c2cccnc2-c2ncccc21.O=C1C(=O)c2cccnc2-c2ncccc21.[Cu+2].[O-][Cl+3]([O-])([O-])[O-].[O-][Cl+3]([O-])([O-])[O-] [Cu-phendione, [Cu(phendione)3](ClO4)2·4H2O]", "> 1 mM"]
]}

----------
System: C. gattii clinical isolates
Method Description: Susceptibility to clinically available antifungals, CLSI M27-A3 microdilution
Format: cell-based
Conditions Used: Cryptococcus gattii, C. gattii isolate 23; value in brackets
In this section we review reported MIC values for a set of compounds.
Value Type: MIC

{"columns": ["Chemical Smiles", "Tested Target", "Value Type", "Reported"],
 "data": [
  ["C[C@@H]1[C@H](O)[C@@H](C)/C=C/C=C/C=C/C=C/C=C/C=C/C=C/[C@H](O[C@@H]2O[C@H](C)[C@@H](O)[C@H](N)[C@@H]2O)C[C@@H]2O[C@](O)(C[C@@H](O)C[C@@H](O)[C@H](O)CC[C@@H](O)C[C@@H](O)CC(=O)O[C@H]1C)C[C@H](O)[C@H]2C(=O)O", "C. gattii clinical isolates", "MIC", "0.03 µM"],
  ["C[C@@H](c1ncncc1F)[C@](O)(Cn1cncn1)c1ccc(F)cc1F", "C. gattii clinical isolates", "MIC", "11.4 µM"],
  ["OC(Cn1cncn1)(Cn1cncn1)c1ccc(F)cc1F", "C. gattii clinical isolates", "MIC", "104 µM"],
  ["CC[C@H](C)C[C@H](C)CCCCCCCCC(=O)N[C@H]1C[C@@H](O)[C@@H](NCCN)NC(=O)[C@@H]2[C@@H](O)CCN2C(=O)[C@H]([C@H](O)CCN)NC(=O)[C@H]([C@H](O)[C@@H](O)c2ccc(O)cc2)NC(=O)[C@@H]2C[C@@H](O)CN2C(=O)[C@H]([C@@H](C)O)NC1=O", "C. gattii clinical isolates", "MIC", "> 7.3 µM"],
  ["Nc1[nH]c(=O)ncc1F", "C. gattii clinical isolates", "MIC", "0.96 µM"]
]}

----------
System: C. gattii clinical isolates
Method Description: Susceptibility to clinically available antifungals, CLSI M27-A3 microdilution
Type: cell-based
Conditions Used: Cryptococcus gattii, 24 h, C. gattii isolate 23; 37 °C
In this section we review reported MIC values for a set of molecules.

{"columns": ["Molecule", "Tested Target", "Censoring Qualifier", "MIC, µg/mL"],
 "data": [
  ["C[C@@H](c1ncncc1F)[C@](O)(Cn1cncn1)c1ccc(F)cc1F [Voriconazole, voriconazole]", "C. gattii clinical isolates", "=", 4],
  ["C[C@@H]1[C@H](O)[C@@H](C)/C=C/C=C/C=C/C=C/C=C/C=C/C=C/[C@H](O[C@@H]2O[C@H](C)[C@@H](O)[C@H](N)[C@@H]2O)C[C@@H]2O[C@](O)(C[C@@H](O)C[C@@H](O)[C@H](O)CC[C@@H](O)C[C@@H](O)CC(=O)O[C@H]1C)C[C@H](O)[C@H]2C(=O)O [Amphotericin B, amphotericin B]", "C. gattii clinical isolates", "=", 0.03],
  ["CC[C@H](C)C[C@H](C)CCCCCCCCC(=O)N[C@H]1C[C@@H](O)[C@@H](NCCN)NC(=O)[C@@H]2[C@@H](O)CCN2C(=O)[C@H]([C@H](O)CCN)NC(=O)[C@H]([C@H](O)[C@@H](O)c2ccc(O)cc2)NC(=O)[C@@H]2C[C@@H](O)CN2C(=O)[C@H]([C@@H](C)O)NC1=O [Caspofungin, caspofungin]", "C. gattii clinical isolates", ">", 8],
  ["Nc1[nH]c(=O)ncc1F [Flucytosine, flucytosine]", "C. gattii clinical isolates", "=", 0.125],
  ["OC(Cn1cncn1)(Cn1cncn1)c1ccc(F)cc1F [Fluconazole, fluconazole]", "C. gattii clinical isolates", "=", 32]
]}
